Data provenance: ChEMBL document CHEMBL5441451

assay: Functional metabolic assay to measure dose dependent changes in cell viability from drug treatment in Vero E6/TMPRSS2 cells (cotreated with P-gp inhibitor, Elacridar). Cells are treated with antiviral candidates that have been serially diluted. Cytotoxicity is reported via measuring absorbance and analysis of MTT/MTS assays in uninfected cells. The assay has been performed by Icahn School of Medicine at Mount Sinai.; type: toxicity, cell-based, VeroE6/TMPRSS2; conditions: chlorocebus sabaeus, veroe6/tmprss2
readout.kind: CC50

Enquiry: Provide CC50 value for the following compound: `CC(C)[C@H](Nc1ncnc2[nH]ccc12)c1ccc2c(c1)S(=O)(=O)CCC2`
Return: > 20 µM

----------
Measured CC50, listed per entry for reference.
test: Functional metabolic assay to measure dose dependent changes in cell viability from drug treatment in iPSC-Pneumocyte cells. The cells are seeded then incubated in MTT (3-[4,5-dimethylthiazol-2-yl]-2,5- diphenyltetrazolium bromide) labeling reagent and SDS. Absorbance is measured at 560 and 750 nm and analyzed by Gen5 software. The assay has been performed by Icahn School of Medicine at Mount Sinai.; assay type: toxicity, cell-based; settings: human, iPSC-Pneumocyte cells

Enquiry: Provide CC50 value for the following molecule: `CNC(=O)Cn1cc(-c2cc3c(N[C@@H](c4ccc5c(c4)S(=O)(=O)CCC5)C(C)C)ncnc3[nH]2)cn1`
Return: 1700 nM

Enquiry: Provide CC50 value for the following molecule: `CNCc1cc(-c2cc3c(N[C@@H](c4ccc5c(c4)S(=O)(=O)CCC5)C(C)C)ncnc3[nH]2)co1`
Return: > 50000 nM

Enquiry: Provide CC50 value for the following molecule: `CCNC(=O)c1cc2c(N[C@@H](c3ccc4c(c3)OCCO4)C(C)C)ncnc2[nH]1`
Return: < 206 nM

Enquiry: Provide CC50 value for the following molecule: `CC(C)[C@@H](Nc1ncnc2[nH]ccc12)c1ccc2c(c1)S(=O)(=O)CCC2`
Return: > 50000 nM

----------
Measured CC50, listed per entry for reference.
experiment: Functional metabolic assay to measure dose dependent changes in cell viability from drug treatment in iPSC-Pneumocyte cells. The cells are seeded then incubated in MTT (3-[4,5-dimethylthiazol-2-yl]-2,5- diphenyltetrazolium bromide) labeling reagent and SDS. Absorbance is measured at 560 and 750 nm and analyzed by Gen5 software. The assay has been performed by Icahn School of Medicine at Mount Sinai.; format: toxicity, cell-based; conditions: human, iPSC-Pneumocyte cells

> print(dat)
                            molecule.smiles  readout.kind  result.value
1  CC(C)(C)[C@@H](Nc1ncnc2[nH]c(-c3cnn(CC(N)=O)c3)cc12)c1ccc2c(n1)OCCO2          CC50       > 50 µM

Enquiry: Provide CC50 value for the following compound: `CNC(=O)c1cc2c(N[C@@H](c3ccc4c(c3)OCCO4)C(C)C)ncnc2[nH]1`
Return: > 50 µM

Enquiry: Provide CC50 value for the following compound: `CNCc1cc(-c2cc3c(N[C@@H](c4ccc5c(c4)S(=O)(=O)NCC5)C(C)C)ncnc3[nH]2)co1`
Return: > 50 µM

Enquiry: Provide CC50 value for the following compound: `CC(C)[C@@H](Nc1ncnc2[nH]c(-c3cnn(C)c3C#N)cc12)c1ccc2c(n1)OCCO2`
Return: 6.02 µM

Enquiry: Provide CC50 value for the following compound: `CC(C)[C@@H](Nc1ncnc2[nH]c(-c3cnn(C)c3)cc12)c1ccc2c(c1)S(=O)(=O)CCC2`
Return: > 50 µM

Enquiry: Provide CC50 value for the following compound: `CC(C)[C@@H](Nc1ncnc2[nH]c(-c3cnn(C)c3C#N)cc12)c1ccc2c(c1)S(=O)(=O)CCC2`
Return: > 50 µM

----------
Measured CC10, listed per entry for reference.
assay: Functional metabolic assay to measure dose dependent changes in cell viability from drug treatment in iPSC-Pneumocyte cells. The cells are seeded then incubated in MTT (3-[4,5-dimethylthiazol-2-yl]-2,5- diphenyltetrazolium bromide) labeling reagent and SDS. Absorbance is measured at 560 and 750 nm and analyzed by Gen5 software. The assay has been performed by Icahn School of Medicine at Mount Sinai.; assay type: toxicity, cell-based; conditions: human, pneumocyte

Enquiry: Provide CC10 value for the following compound: `CC(C)(C)[C@@H](Nc1ncnc2[nH]c(-c3cnn(CC(N)=O)c3)cc12)c1ccc2c(n1)OCCO2`
Return: > 50 µM

Enquiry: Provide CC10 value for the following compound: `CC(C)[C@H](Nc1ncnc2[nH]c(-c3cnn(CC(N)=O)c3)cc12)c1ccc2c(c1)S(=O)(=O)CCC2`
Return: > 50 µM

Enquiry: Provide CC10 value for the following compound: `CC(C)[C@@H](Nc1ncnc2[nH]c(-c3cnn(C)c3)cc12)c1ccc2c(c1)S(=O)(=O)CCC2`
Return: > 50 µM

----------
test: Functional metabolic assay to measure dose dependent changes in cell viability from drug treatment in HeLa-ACE2 cells. Hela-ACE2 cells are seeded prior to drug treatment, then incubated in MTT (3-[4,5-dimethylthiazol-2-yl]-2,5- diphenyltetrazolium bromide) labelling reagent and SDS. Absorbance is measured at 560 and 750 nm and analyzed by Gen5 software. The assay has been performed by Icahn School of Medicine at Mount Sinai.; type: toxicity, cell-based; details: human, hela-ace2
Measured CC10, listed per entry for reference.

// known answers, use as guide
> print(dat)
                            molecule.smiles  result.value
1  CC(C)[C@@H](Nc1ncnc2[nH]c(-c3cnn(C)n3)cc12)c1ccc2c(c1)OCCO2       > 20 µM
2  CNC(=O)Cn1cc(-c2cc3c(N[C@H](c4ccc5c(c4)S(=O)(=O)CCC5)C(C)C)ncnc3[nH]2)cn1       > 20 µM

Enquiry: Provide CC10 value for the following compound: `CC(C)[C@H](Nc1ncnc2[nH]c(-c3cnn(C)c3C#N)cc12)c1ccc2c(n1)NC(=O)CO2`
Return: > 20 µM

Enquiry: Provide CC10 value for the following compound: `CNC(=O)c1cc2c(N[C@@H](c3ccc4c(c3)OCCO4)C(C)C)ncnc2[nH]1`
Return: > 50 µM

----------
assay: Functional metabolic assay to measure dose dependent changes in cell viability from drug treatment in iPSC-Pneumocyte cells. The cells are seeded then incubated in MTT (3-[4,5-dimethylthiazol-2-yl]-2,5- diphenyltetrazolium bromide) labeling reagent and SDS. Absorbance is measured at 560 and 750 nm and analyzed by Gen5 software. The assay has been performed by Icahn School of Medicine at Mount Sinai.; assay type: toxicity, cell-based; conditions: human, iPSC-Pneumocyte cells
readout.kind: CC50

Enquiry: Provide CC50 value for the following molecule: `CNC(=O)Cn1cc(-c2cc3c(N[C@H](c4ccc5c(c4)S(=O)(=O)CCC5)C(C)C)ncnc3[nH]2)cn1`
Return: > 50 µM

----------
test: Functional metabolic assay to measure dose dependent changes in cell viability from drug treatment in HeLa-ACE2 cells. Hela-ACE2 cells are seeded prior to drug treatment, then incubated in MTT (3-[4,5-dimethylthiazol-2-yl]-2,5- diphenyltetrazolium bromide) labelling reagent and SDS. Absorbance is measured at 560 and 750 nm and analyzed by Gen5 software. The assay has been performed by Icahn School of Medicine at Mount Sinai.; assay type: toxicity, cell-based; settings: human, HeLa-ACE2 cells
Measured CC50, listed per entry for reference.

> print(dat)
                            molecule.smiles  result.value
1  C[C@H](C(=O)O)[C@@H](NC(=O)c1ncnc2[nH]ccc12)c1ccc(Br)cc1       > 20 µM
2  CC(C)[C@@H](Nc1ncnc2[nH]c(-c3cnn(C)c3C#N)cc12)c1ccc2c(c1)S(=O)(=O)CCC2       > 20 µM
3  CC(C)[C@@H](Nc1ncnc2[nH]c(-c3cnn(C)c3C#N)cc12)c1ccc2c(c1)OCCO2       > 50 µM
4  CNC(=O)c1c[nH]c2ncnc(N[C@H](c3ccc4c(c3)S(=O)(=O)CCC4)C(C)C)c12       > 20 µM
5  CC(C)[C@@H](Nc1ncnc2[nH]c(-c3cnn(CC(=O)N(C)C)c3)cc12)c1ccc2c(c1)S(=O)(=O)CCC2       > 20 µM

Enquiry: Provide CC50 value for the following molecule: `CC(C)[C@@H](Nc1ncnc2[nH]c(-c3ccc4nnn(C)c4c3)cc12)c1ccc2c(c1)S(=O)(=O)CCC2`
Return: > 20 µM

----------
Measured CC10, listed per entry for reference.
test: Functional metabolic assay to measure dose dependent changes in cell viability from drug treatment in iPSC-Pneumocyte cells. The cells are seeded then incubated in MTT (3-[4,5-dimethylthiazol-2-yl]-2,5- diphenyltetrazolium bromide) labeling reagent and SDS. Absorbance is measured at 560 and 750 nm and analyzed by Gen5 software. The assay has been performed by Icahn School of Medicine at Mount Sinai.; type: toxicity, cell-based; settings: human, pneumocyte

// known answers, use as guide
> print(dat)
                            molecule.smiles  result.value
1  CC(C)[C@@H](Nc1ncnc2[nH]c(-c3cnn(CC(N)=O)c3)cc12)c1ccc2c(n1)OCCO2       > 50 µM
2  CCNC(=O)c1cc2c(N[C@@H](c3ccc4c(c3)OCCO4)C(C)C)ncnc2[nH]1       1.29 µM
3  CC(C)[C@@H](Nc1ncnc2[nH]c(C(N)=O)cc12)c1ccc2c(c1)OCCO2       > 50 µM

Enquiry: Provide CC10 value for the following molecule: `CNCc1cc(-c2cc3c(N[C@@H](c4ccc5c(c4)S(=O)(=O)CCC5)C(C)C)ncnc3[nH]2)co1`
Return: > 50 µM
